# Assay target: human c-Met (Homo sapiens, UniProt P08581)
# Construct: Recombinant GST-tagged cytosolic domains of human c-Met; 6xHis
# Sequence (P08581 956-1390 limits assumed): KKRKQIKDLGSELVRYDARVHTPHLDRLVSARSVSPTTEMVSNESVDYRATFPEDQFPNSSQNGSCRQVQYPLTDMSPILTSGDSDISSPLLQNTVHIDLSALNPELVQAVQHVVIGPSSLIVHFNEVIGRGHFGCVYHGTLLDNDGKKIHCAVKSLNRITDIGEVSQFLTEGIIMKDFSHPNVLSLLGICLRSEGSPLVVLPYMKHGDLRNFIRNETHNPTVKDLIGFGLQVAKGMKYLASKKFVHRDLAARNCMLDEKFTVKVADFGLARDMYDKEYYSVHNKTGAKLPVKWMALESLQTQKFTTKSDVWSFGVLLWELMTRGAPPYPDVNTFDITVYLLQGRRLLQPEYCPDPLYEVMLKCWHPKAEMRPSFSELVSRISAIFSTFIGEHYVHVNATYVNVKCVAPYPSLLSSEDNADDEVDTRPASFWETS
# Assay notes: in vitro kinase assay (homogeneous time-resolved tyrosine kinase assay, METKA)
# Study conditions: recombinant GST-tagged c-Met cytosolic domain, HTRF, 50 μM MgATP; read-out: Biological Activity (METKA IC50) Activity Code
I'd be grateful if you could share measured IC50 for these entries.

Before answering, review these 3 worked examples.
molecule="CC(Oc1nn(-c2cnn(C)c2)ccc1=O)c1ccc2ncccc2c1 (single isomer, unassigned) [Example 139]" metric_name=IC50 result="100 to 1000 nM"
molecule=COCCOc1cnc2ccc(NCc3nn(-c4cnn(C)c4)ccc3=O)cc2c1 metric_name=IC50 result="< 100 nM"
molecule=COC(=O)c1cnc2ccc(OCc3nn(-c4cnn(C)c4)ccc3=O)cc2c1 metric_name=IC50 result="100 to 1000 nM"

Items follow; give IC50 for each.
1. CCOc1cnc2ccc(SCc3nn(-c4cnn(C)c4)ccc3=O)cc2c1
2. CCn1cc(-n2ccc(=O)c(COc3ccc4ncc(OCC(F)F)cc4c3)n2)cn1
3. Cn1cc(-n2ccc(=O)c(COc3ccc4ncc(OCC(F)F)cc4c3)n2)cn1

[reply]
< 100 nM
< 100 nM
< 100 nM
